Please go through the items and note down their IC50.
tested system: adenosine A1 receptor (Rattus norvegicus)
Construct: Whole brain minus cerebellum and brainstem from male Long Evans rats
Sequence (P25099 whole entry): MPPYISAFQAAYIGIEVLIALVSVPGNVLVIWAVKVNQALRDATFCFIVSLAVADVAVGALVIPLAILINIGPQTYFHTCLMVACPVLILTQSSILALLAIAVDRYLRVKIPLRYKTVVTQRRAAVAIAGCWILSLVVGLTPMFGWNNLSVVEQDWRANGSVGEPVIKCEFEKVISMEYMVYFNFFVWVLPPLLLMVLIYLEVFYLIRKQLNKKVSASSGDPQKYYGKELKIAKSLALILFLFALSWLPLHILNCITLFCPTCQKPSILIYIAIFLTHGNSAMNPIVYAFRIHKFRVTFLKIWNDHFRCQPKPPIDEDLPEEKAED
protocol details: Adenosine Receptor Binding - A1 Receptor Affinity (RBA1), [3H]-N6-cyclohexyladenosine displacement
experimental setup: [3H]-CHA 1.0 nM, rat brain membranes, 25° C., one hour; read-out: RBA-1, IC50 for adenosine A1 receptor affinity
# number only, unit nM dropped from output

# compound Cc1nn(C)c2c(=O)[nH]c(Cc3ccccc3)nc12 ; its IC50 = 13100

Cc1nn(C)c2c(=O)[nH]c(-c3cccc([N+](=O)[O-])c3)nc12 yielded IC50 of 1200

# IC50 of Cc1nn(C)c2c(=O)[nH]c(-c3ccc(N)cc3)nc12 = 385

// IC50 lookup, compound = Cc1nn(C)c2c(=O)[nH]c(-c3ccc(Cl)c(Cl)c3)nc12 , result: 887

Data point: Cc1nn(C)c2c(=O)[nH]c(-c3ccccc3)nc12 ; IC50 = 1020

For reference, reported IC50 for COc1ccc(-c2nc3c(C)nn(C)c3c(=O)[nH]2)cc1OC stands at 1920

IC50 reported for this compound Cc1nn(C)c2c(=O)[nH]c(-c3ccc(C(F)(F)F)cc3)nc12 : 463

The reported value for Cc1nn(C)c2c(=O)[nH]c(-c3ccc([N+](=O)[O-])cc3)nc12 in terms of IC50 is 880

GET /value?item= COc1ccc(-c2nc3c(C)nn(C)c3c(=O)[nH]2)c(OC)c1 &field=IC50 returns 5430
